Molecular target: EGFR (Homo sapiens)
Construct: Kinases are expressed as either kinase domains or full length constructs; made in house
Sequence (P00533 25-1210, species assumed): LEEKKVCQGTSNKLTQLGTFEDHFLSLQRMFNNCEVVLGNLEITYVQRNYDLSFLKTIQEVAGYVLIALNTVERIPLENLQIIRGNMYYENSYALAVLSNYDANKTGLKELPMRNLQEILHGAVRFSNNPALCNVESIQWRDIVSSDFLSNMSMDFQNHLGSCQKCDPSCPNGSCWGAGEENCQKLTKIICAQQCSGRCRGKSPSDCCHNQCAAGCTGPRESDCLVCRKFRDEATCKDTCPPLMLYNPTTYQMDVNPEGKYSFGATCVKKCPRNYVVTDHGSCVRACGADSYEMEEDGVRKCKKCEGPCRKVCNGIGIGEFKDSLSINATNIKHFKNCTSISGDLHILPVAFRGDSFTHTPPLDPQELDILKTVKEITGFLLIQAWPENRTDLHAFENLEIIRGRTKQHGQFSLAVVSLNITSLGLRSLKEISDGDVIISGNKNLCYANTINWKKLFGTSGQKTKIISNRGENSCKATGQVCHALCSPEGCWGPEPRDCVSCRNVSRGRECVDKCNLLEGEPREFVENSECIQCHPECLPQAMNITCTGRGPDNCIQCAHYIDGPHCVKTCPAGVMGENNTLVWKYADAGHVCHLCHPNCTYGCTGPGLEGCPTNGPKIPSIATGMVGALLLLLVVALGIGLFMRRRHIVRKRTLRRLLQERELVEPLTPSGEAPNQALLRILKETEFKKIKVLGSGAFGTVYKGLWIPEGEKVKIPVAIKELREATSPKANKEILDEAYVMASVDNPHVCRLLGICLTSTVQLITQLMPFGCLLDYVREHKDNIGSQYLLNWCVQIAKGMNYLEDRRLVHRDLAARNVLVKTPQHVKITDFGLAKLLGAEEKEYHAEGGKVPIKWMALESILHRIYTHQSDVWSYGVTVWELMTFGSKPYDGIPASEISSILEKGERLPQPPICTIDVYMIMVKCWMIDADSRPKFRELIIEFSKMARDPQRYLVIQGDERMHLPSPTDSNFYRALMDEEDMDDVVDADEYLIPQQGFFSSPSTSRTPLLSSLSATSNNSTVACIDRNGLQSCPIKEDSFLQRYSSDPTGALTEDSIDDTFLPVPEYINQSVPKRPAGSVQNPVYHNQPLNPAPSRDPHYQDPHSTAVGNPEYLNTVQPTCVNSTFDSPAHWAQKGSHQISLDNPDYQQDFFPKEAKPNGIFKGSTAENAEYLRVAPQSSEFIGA
Assay: Kinase inhibition assay (33P transfer), EGFR
Type: biochemical
Conditions: Table 2, kinase inhibition class; read-out: EGFR-1
Experimental: The inhibitor compounds described herein are screened in the following manner. […] Kinases are expressed as either kinase domains or full length constructs fused to glutathione S-transferase (GST) or polyHistidine tagged fusion proteins in either E. colior Baculovirus-High Five expression systems. […] Kinase activity and inhibition are measured essentially by established protocols (Braunwalder et al., 1996). […]
Readings of IC50 for the listed molecules

c1ccc(-c2ncnc(Nc3ccc(OCCCN4CCOCC4)cc3)n2)cc1 [Compound 154]	> 11.5 µM
COCCOc1ccc(Nc2ncnc(-c3ccccc3)n2)cc1 [Compound 155]	> 14 µM
COc1cc(Nc2ncnc(Nc3ccc4cn[nH]c4c3)n2)cc(OC)c1OC [Compound 70]	1.02 to 6.1 µM

Would you kindly share the measured IC50 for N#Cc1ccc(Nc2ncnc(-n3c(=O)[nH]c4ccccc43)n2)cc1 [Compound 485] ?
> 13.7 µM

Request the reported IC50 associated with COc1ccc(Nc2ncnc(NCCNC(C)=O)n2)cc1OC [Compound 784]
> 13.5 µM

Which IC50 is reported for this molecule? CN(c1cccc(Cl)c1)c1ncnc(N(C)c2cccc(Cl)c2)n1 [Compound 702]
1.11 to 6.66 µM

Can you look up the measured IC50 of COc1cc(Nc2ncnc(-c3cccnc3NCc3ccc(F)cc3)n2)cc(OC)c1OCCN1CCOCC1 [Compound 564] for me?
4.27 to 6.23 µM

Entry COc1cc(Nc2ncnc(-n3cc(C#N)c4ccccc43)n2)cc(OC)c1OC [Compound 332] : reported IC50 = ?
> 11.2 µM

Param item = COc1ccc(Nc2ncnc(NCc3c(C)cccc3Cl)n2)cc1OC [Compound 791] ; retrieve measured IC50.
> 11.7 µM
